Biological target: T1, EDIII-DV1 (Dengue virus serotype 1 (DV1), UniProt P17763 581-673)
T1 construct: also called EDIII of DV1; EDIII-DVI
T1 sequence (P17763 581-673 limits assumed): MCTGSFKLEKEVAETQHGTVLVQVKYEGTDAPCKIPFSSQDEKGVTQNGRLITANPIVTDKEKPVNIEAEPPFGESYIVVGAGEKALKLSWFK
experimental_readout: kon

binder: VH_G27A (antibody, V domains shown) VH: VKLLEQSGAELVKPGASVRLSCTASAFNIKDTYMSWVKQRPEQGLEWIGRIDPENGDTKYDPKFQGKATITADTSSNTAYLHLSSLTSGDTAVYYCSRGWEGFAYWGQGTLVTVSA VL: ELVMTQTPASLAVSLGQRATISCRASENVDKYGNSFMHWYQQKAGQPPKLLIYRASELQWGIPARFSGSGSRTDFTLTINPVEADDVATYFCQRSNEVPWTFGGGTKLEIKR
recorded_result: 1.04e+06 M⁻¹ s⁻¹
//
binder: VH_A25_del (antibody, V domains shown, also called 4E5-del-25; copies: 2 + 2) VH: VKLLEQSGAELVKPGASVRLSCTSGFNIKDTYMSWVKQRPEQGLEWIGRIDPENGDTKYDPKFQGKATITADTSSNTAYLHLSSLTSGDTAVYYCSRGWEGFAYWGQGTLVTVSA VL: ELVMTQTPASLAVSLGQRATISCRASENVDKYGNSFMHWYQQKAGQPPKLLIYRASELQWGIPARFSGSGSRTDFTLTINPVEADDVATYFCQRSNEVPWTFGGGTKLEIK
recorded_result: 933000 M⁻¹ s⁻¹
//
binder: VH_G27P (antibody, V domains shown, also called 4E5-G27P; copies: 2 + 2) VH: VKLLEQSGAELVKPGASVRLSCTASPFNIKDTYMSWVKQRPEQGLEWIGRIDPENGDTKYDPKFQGKATITADTSSNTAYLHLSSLTSGDTAVYYCSRGWEGFAYWGQGTLVTVSA VL: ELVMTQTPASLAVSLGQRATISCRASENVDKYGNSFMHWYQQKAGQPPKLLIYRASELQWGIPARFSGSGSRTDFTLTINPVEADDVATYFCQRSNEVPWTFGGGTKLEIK
recorded_result: 3.05e+06 M⁻¹ s⁻¹
//
binder: VH_G27_del (antibody, V domains shown) VH: VKLLEQSGAELVKPGASVRLSCTASFNIKDTYMSWVKQRPEQGLEWIGRIDPENGDTKYDPKFQGKATITADTSSNTAYLHLSSLTSGDTAVYYCSRGWEGFAYWGQGTLVTVSA VL: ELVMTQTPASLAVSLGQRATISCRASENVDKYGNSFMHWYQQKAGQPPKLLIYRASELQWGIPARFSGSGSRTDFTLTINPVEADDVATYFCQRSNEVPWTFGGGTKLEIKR
recorded_result: 1.52e+06 M⁻¹ s⁻¹
